Measured viability at 10 µM values are reported for all entries that follow.
- Tested on: KM12
- experiment-summary: Cytotoxicity against human KM12 cells assessed as cell viability at 10 uM incubated for 48 hrs by sulforhodamine B assay relative to control
- Assay type: functional
- run-parameters: read-out: Activity

Guide cases for viability at 10 µM, answers given:
> print(dat)
                                smiles.repr  observed
1  O=C(NCCCNc1nccc(-c2c(-c3cccc(F)c3)nc3sccn23)n1)c1ccc(F)cc1       89%
2  O=S(=O)(NCCNc1nccc(-c2c(-c3cccc(F)c3)nc3sccn23)n1)c1ccccc1     28.8%
3  O=S(=O)(NCCCNc1nccc(-c2c(-c3cccc(F)c3)nc3sccn23)n1)c1ccccc1     62.1%
4  O=C(NCCNc1nccc(-c2c(-c3cccc(F)c3)nc3sccn23)n1)c1ccc(Cl)cc1     62.8%
5  O=S(=O)(NCCNc1nccc(-c2c(-c3cccc(F)c3)nc3sccn23)n1)c1cccc(F)c1     44.2%

Turning to the following compound.
Exercise: Which viability at 10 µM is reported for this compound? "O=S(=O)(NCCNc1nccc(-c2c(-c3cccc(F)c3)nc3sccn23)n1)c1ccc(F)cc1"
Key: 40.1%
